Test system: polyA-polyU
Assay: UV–Vis titration with polyA-polyU (Scatchard)
Type: binding
Details: footnote e: calculated from experimental data
measuredAttribute: Hypochromic effect H/%, polyA-polyU (from experimental data)

Looking for the measured Hypochromic effect H/%, polyA-polyU (from experimental data) of "c1ccc(-n2cc(COc3ccc(-c4nc5cc(C6=NCCN6)ccc5[nH]4)cc3)nn2)cc1" , can you help? 32.7 ^e %

Looking for the measured Hypochromic effect H/%, polyA-polyU (from experimental data) of "COc1ccc(-n2cc(COc3ccc(-c4nc5cc(C(=N)N)ccc5[nH]4)cc3)nn2)cc1.Cl.Cl" , can you help? 27.9 ^e %

Looking for the measured Hypochromic effect H/%, polyA-polyU (from experimental data) of "c1ccc(Cn2cc(COc3ccc(-c4nc5cc(C6=NCCN6)ccc5[nH]4)cc3)nn2)cc1" , can you help? 55.5 ^e %

Looking for the measured Hypochromic effect H/%, polyA-polyU (from experimental data) of "COc1ccc(-n2cc(COc3ccc(-c4nc5cc(C6=NCCN6)ccc5[nH]4)cc3)nn2)cc1.Cl.Cl" , can you help? 31.6 ^e %

All figures here come from paper PMC6127852.
